assay_info: soluble on expression in E. coli; label from the status in PepcDB or PDB records
property_label: soluble on expression in E. coli

record_sequence	property_label	observed_result
MSLVTVDQKPNLIRHLHDLSGVWQTDITYIQLTNHRWVYLATVLDPEKRKVLGYKIGDTMTAELATSALQMALDKHRKPLIIHSDMGSQYTSAEFNIKCQNYGLKHSYSLKGHPYDNGRMEAFHSILKREEVYLKAYQTLTEVQAAIGWYINFYNRNRISNVAEGHHHHHH	soluble on expression in E. coli	not soluble
MNPSMKQKQEEIKENIKNSSVPRRTLKMIQPSASGSLVGRENELSAGLSKRKHRNDHLTSTTSSPGVIVPESSENKNLGGVTQESFDLMIKENPSSQYWKEVAEKRRKALYEALKENEKLHKEIEQKDNEIARLKKENKELAEVAEHVQYMAELIERLNGEPLDNFESLDNQEFDSEEETVEDSLVEDSEIGTCAEGTVSSSTDAKPCI	soluble on expression in E. coli	soluble
MGSDKIHHHHHHMSAELPLVFSVTSGKGGVGKTNMSVNIACCLSRMGKRVVLLDADLGLANVDVVLGLAPPRNLFHLFHEGADLGSILCEMPYGFRILPASSGVGEMLSLSTGQKLDLLEAMDVLEDSVDYLLVDTGAGINDNVLYFNIAAQERIVVLTPEPTSLTDAYALIKVMKLNHGVEHFKVLVNMAGDMKAAREVFSRLYKACDHFLSGVSLDLLGYVPRDRTVRRAVVEQTPFCVLDSRSPASLAVQKVAETVQTWDVSASLDGNIKFFWKKLLFR	soluble on expression in E. coli	not soluble
SNAAEHVRLATTTSTYHSGLLDYLLPQFEKDTGYKVDVIAAGTGKALKMGENGDVDLVMTHAPKAEGTFVEKGYGVLPRKLMYNDFVIVGPKADPAKIKDDESVLDVFKEIANKNATFISRGDDSGTHKKEMGFWAQTKIEPNFGGYRSVGQGMGPTLNMASEMQGYTMSDRGTWLAYQNKLDLEILFQGDEKLFNPYQVILVNPERYPTINYQGAKAFSDWLVNPRGQELINGFRL	soluble on expression in E. coli	soluble
TDFIWNLTWMGSTVTNKVLKLTGESPEIIKGVFSIKEGMPINTYYMAKSAGVDPATGAQLYWVYDKDDNGNITNEYISSDYQKAANSKYYSGSRIPDLYGSINTDFSYKNFDLSILGTYSIGGKVYDSLYAGSMEVMYAGNTWNKHALRRWQQPGDITDVPRIQIGGSYTTSDRFLVDASYFAIKNITLGYTIPKQWLKKAGLESVRIFGSVDNLALFSHLDGMDPQYNFKGETDYSYAPNKTYSVGFEINF	soluble on expression in E. coli	not soluble
MGSDKIHHHHHHMSASSNRTIPVFQLYGETHQWPTPDLLHCESIAERSRLHDWHIRPHRHADLVHVLHIAHGDVNLTFEEGAQRLTGPLLIVVPAMTVHAFRFSRDVDGHIVTLAMPLARHIADTLHPQGQILARAAFYPLADQPERAPIATLVDQLDAEYRHPADGRDALLEALLNSLLVLASRRATRRQARPASRQHERGEAHLARFQQLIEAHYHQQPSIPEFAERLGISSAHLSAVCQRLAGRSAQQLLHERVLLEAKRHLTYTNMTIGQVAERLGFKEPAYFTRFFKRHVACSPKEFRQRQA	soluble on expression in E. coli	not soluble
MGSDKIHHHHHHMKVKWSRDFSIKNMQLDKQHELIFEITNLANDLALNIQDNNTQHKNDLKQILVKLFQYIKIHFKDEEKFMESIDFPLIEEHKKSHQILVEKTKELLEHSNDIVKMSQELSILTKDWILDHFANEDLWIANFTKKTLHLQEIHYTLEQYIKLKSIKQDLRAEKTYDYICNCSLRIHAVPQTIHQELVSKENTLKCEKCGQILVHLDYFDLNQNFEKFNAIFEDALQNHHFTTQENDMRGGG	soluble on expression in E. coli	not soluble
HHHHHHGHMRTNKDRLVRISVVGEIAPAKMRSPYSVTTEGTVRVIPVLGGITYNVKVGDSAYGWAGDHVEPGVSVMARRKEEEIPLMTLSCIGNEVIVMSGDAKGSRGFVTGKHGGVNHVLVHFEEEVLGKLMVGDKILIKAWGQGLKLLDHPDVKVMNIDPDLFEKLGIQEKNGKIHVPVVAKIPAHMMGSGIGASSSASTDYDIMASNPEDLGVADLKLGDIVAIQDHDNSYGVGKYRKGAVSIGVVVHSACVSAGHGPGVVVIMTGDESKILPEEVERANISDYLVR	soluble on expression in E. coli	soluble
MKPKETVCFNIKYSWHAISRMYNERASKYGTTAAVGFILLNIDVEKGTAATHIGPALGMEATSLSRVFNTMEQDGLIERRNDSSDKRKVTIFLTALGKDKRQIAKDFVLDFNNKVREQVSESKLNTFFEVLHEIQSIIDNKNTSLT	soluble on expression in E. coli	soluble
MGYRIEFDPRAEKELEKLDREVARRILRFLRERVATLEDPRSLGEPLRGPELGRFWKYRVGDYRLICHIQDREATVLVLRVGHARDVYR	soluble on expression in E. coli	soluble
MGSDKIHHHHHHMKDTNRTHSADAATVEEALAADNHQGIVDSEGATALAMQNTLLTPRFYTTDFDEMDSLDVSSVREDWDTLIAQMKSDPNKGHFKKNEDWDSVDWDGMEPALKREFIDFLVSSCTAEFSGCVLYKEMKRRGNNEDIVTLFQLMARDEARHAGFINDALREAGIAVNLGFLTQKKKYTYFRPKFIYYATYLSEKIGYARYITIFRHLEANPEHRFHPIFKWFREWCNDEFSHGEAFALIMKSDPKFTQKWQNKLWIKFFLTAVYSTMYVRDHQRPVFHAALGVDPDWYAHEVFTKTSEITKQIFPITLDIENPRWQRGLEAMQRANVDLADAKANGKLFKRIGASIRAGAAFVNLFTIPANKHDAPASVRLEPAY	soluble on expression in E. coli	not soluble
MSLYIETVRGKIKPEEFGVCACHEHLHIDLSRIKNDSDTALVEVALVLSDLKSFVSHGGQAIVDVTNDGMGRDVEKLVVMSEALDLHIVASTGCYKDPFIPEEKQMWTREQFAEWMIDEIMYGISGTTVKPGVIGEIGSSLNEFKPVELELFYGAIEAAKTTKLPLSTHTTLGTLAMEQIRLFDSESLPLDQVIIGHQDLNDDDEQVLKVLSTGAYVALDTIGKENYRSDEARLNSLLLFLEKGYEDQLLLSSDVTRTSHLLVHGGQGYDVVLRSFIPKLRAKGADEATIQKLLVKTHKKHLASREGHHHHHH	soluble on expression in E. coli	not soluble
